Biological target: T1, cynomolgus monkey IL-33 expressed with a C-terminal hexahistidine tag (cynomolgus monkey)
T1 construct: also called MfIL-33-6His; Mf-IL-33-6His
T1 chain: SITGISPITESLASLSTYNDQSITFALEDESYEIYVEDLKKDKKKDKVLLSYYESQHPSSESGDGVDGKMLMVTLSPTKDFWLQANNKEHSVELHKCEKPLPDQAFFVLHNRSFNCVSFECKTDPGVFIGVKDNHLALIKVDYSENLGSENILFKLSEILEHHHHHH
Experiment: SPR 25C pH7.4, mAb captured
Could you label it met if measured koff is 0.001 s⁻¹ or higher, and not met otherwise?

- H1M9559N (antibody, mouse IgG1, V domains shown, Human variable domains, mouse IgG1 Fc (H1M)) VH: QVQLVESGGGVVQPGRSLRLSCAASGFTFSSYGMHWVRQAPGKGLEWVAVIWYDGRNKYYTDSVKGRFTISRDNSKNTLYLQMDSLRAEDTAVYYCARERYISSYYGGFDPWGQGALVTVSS VL: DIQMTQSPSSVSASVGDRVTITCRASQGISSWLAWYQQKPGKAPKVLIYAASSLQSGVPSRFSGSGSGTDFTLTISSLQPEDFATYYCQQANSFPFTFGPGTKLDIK: met
- H4H9629P (antibody, human IgG4, V domains shown, Human IgG4 Fc (H4H)) VH: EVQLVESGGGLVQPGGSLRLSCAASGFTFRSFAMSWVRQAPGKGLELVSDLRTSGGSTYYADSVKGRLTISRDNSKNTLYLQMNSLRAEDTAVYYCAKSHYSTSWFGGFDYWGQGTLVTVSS VL: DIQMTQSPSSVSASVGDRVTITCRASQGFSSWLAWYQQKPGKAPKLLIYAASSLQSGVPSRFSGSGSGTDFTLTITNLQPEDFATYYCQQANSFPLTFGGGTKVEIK: met
- H4H9671P (antibody, human IgG4, V domains shown, Human IgG4 Fc (H4H)) VH: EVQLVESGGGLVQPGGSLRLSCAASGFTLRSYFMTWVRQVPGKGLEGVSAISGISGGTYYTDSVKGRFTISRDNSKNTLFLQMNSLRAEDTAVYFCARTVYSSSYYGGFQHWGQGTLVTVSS VL: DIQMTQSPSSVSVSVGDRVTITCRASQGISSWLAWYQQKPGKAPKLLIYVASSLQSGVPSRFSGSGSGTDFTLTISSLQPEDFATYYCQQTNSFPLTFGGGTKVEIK: met
- H4H9665P (antibody, human IgG4, V domains shown, Human IgG4 Fc (H4H)) VH: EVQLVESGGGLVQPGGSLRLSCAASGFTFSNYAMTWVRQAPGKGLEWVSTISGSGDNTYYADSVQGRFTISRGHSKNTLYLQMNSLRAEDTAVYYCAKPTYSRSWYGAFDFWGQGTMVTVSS VL: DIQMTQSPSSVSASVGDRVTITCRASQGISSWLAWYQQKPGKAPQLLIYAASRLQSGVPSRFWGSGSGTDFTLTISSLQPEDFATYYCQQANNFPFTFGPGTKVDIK: not met

In the following, a different binder is considered.
**Q:** Dear colleague, could you confirm whether H4H9676P (antibody, human IgG4, V domains shown, Human IgG4 Fc (H4H)) VH: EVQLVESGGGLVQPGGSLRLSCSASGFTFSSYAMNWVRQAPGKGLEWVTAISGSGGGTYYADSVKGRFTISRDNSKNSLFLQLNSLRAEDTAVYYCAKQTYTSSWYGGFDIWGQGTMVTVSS VL: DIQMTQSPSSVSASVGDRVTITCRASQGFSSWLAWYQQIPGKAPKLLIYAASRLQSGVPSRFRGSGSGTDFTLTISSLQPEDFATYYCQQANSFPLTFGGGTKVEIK has koff at or above 0.001 s⁻¹?
**A:** met
